Test system: HCC 2998
Experiment: NCI tumour cell line growth inhibition, 48 h
Calls of active or inactive are those of the source. Cut-off read from the data, not from the text of the source: active = GI50 up to about 1.1 µM and inactive = higher.
QUANTITY_NAME: GI50

INSERT INTO results (compound, observed_result) VALUES
  ('CN(O)C(=O)c1ccccc1', '> 100 µM (inactive)'),
  ('O=C1C=CC2(C=C1)O[C@H](Cc1ccccc1)[C@@H](Cc1ccccc1)O2', '2.64 µM (inactive)'),
  ('Cc1cc(C)c2c(c1)C(=O)C1(C2)Cc2c(ccc(C)c2C)C1=O (stereo not given)', '> 100 µM (inactive)'),
  ('N[C@H]1CCCC[C@@H]1N1C(=O)c2ccccc2C1(O)c1ccc(Cl)cc1 (stereo not given in full)', '1.86 µM (inactive)'),
  ('CO/N=C\c1cc(O)c(O)c(/C=N/OC)c1', '32.8 µM (inactive)'),
  ('CCC(C#N)NC(=O)NC(C#N)CC (stereo not given)', '> 100 µM (inactive)'),
  ('CC(N)C(C)c1ccccc1 (stereo not given)', '> 100 µM (inactive)'),
  ('CC1=NN(c2ccccc2)C(=O)C1/N=N/c1ccc(Br)c(C)c1 (stereo not given)', '> 100 µM (inactive)');

Q. Item Nc1ccn(C2CCC(CO)O2)c(=S)n1 (stereo not given) : provide GI50
A. > 100 µM (inactive)

Q. Check the records and state GI50 for "O=C1C(=O)N(c2ccc(Cl)cc2Cl)C(=O)C(=O)C1c1nc2ccccc2o1"
A. > 100 µM (inactive)
